# Tested on: MCF-7
# Assay info: CCK-8 cytotoxicity assay, MCF-7
# Type: cell-based
# Test parameters: Homo sapiens, MCF7; CCK-8, 24 h treatment, n = 3; read-out: Cytotoxicity (IC50) MCF-7
Measurement label: IC50 (µM)
Write the value in µM as a bare number.

IC50 lookup needed for O=C1CCC[C@@H]2[C@H]3CCCN4CCC[C@@H](CN12)[C@@H]34 [Matrine, reference compound] , thanks. 35.5

###

# Assay info: in vitro
# Format: cell-based
# Test parameters: human
Measurement label: viability at 24 h, 35 µM

Form field: reported viability at 24 h, 35 µM of CC(C=O)C1CCC2(C)CCC3(C(=O)O)C(CCC4C5(C)CCC(O)C(C)(C)C5CCC43C)C12 (stereo not shown) [Compound 1] > 90%

###

# Tested on: HepG-2
# Assay info: CCK-8 cytotoxicity assay, HepG-2
# Assay type: cell-based, human
# Test parameters: Homo sapiens, HepG2, 24 h, read-out: Cytotoxicity (IC50) HepG-2
Measurement label: pIC50
Here pIC50 is given on a logarithmic scale as minus log10 of the concentration in mol/L.

Compound: CC(C=O)[C@@H]1CC[C@]2(C)CC[C@]3(C(=O)O)C(CCC4[C@@]5(C)CC[C@@H](O)C(C)(C)C5CC[C@]43C)C12 (stereo partly drawn)
pIC50: 4.74

Which pIC50 is listed for CC(=O)OC1CCC2(C)C(CCC3(C)C2CCC2C4C(C(C)C=O)CCC4(C)CCC23C(=O)O)C1(C)C (stereo not drawn) ? 4.60

Value lookup for pIC50; key = CC(C=O)C1CCC2(C)CCC3(C(=O)O)C(CCC4C5(C)CCC(O)C(C)(C)C5CCC43C)C12 (stereo not drawn) 4.75
